Sourced from patent US20200223889A1

assayed-target: human melanocortin 4 receptor (human), P32245
Sequence (P32245 whole entry): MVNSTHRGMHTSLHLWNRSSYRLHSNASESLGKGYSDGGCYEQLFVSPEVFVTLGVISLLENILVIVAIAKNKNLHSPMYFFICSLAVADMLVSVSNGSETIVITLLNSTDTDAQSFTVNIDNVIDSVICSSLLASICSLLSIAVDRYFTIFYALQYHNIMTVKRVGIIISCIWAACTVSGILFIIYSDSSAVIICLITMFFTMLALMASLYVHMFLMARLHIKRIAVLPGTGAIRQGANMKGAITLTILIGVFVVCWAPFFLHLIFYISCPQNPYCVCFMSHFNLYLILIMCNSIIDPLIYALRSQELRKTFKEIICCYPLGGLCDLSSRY
assay-remarks: cell-based or functional assay
outcome-measure: MC4R cAMP EC50 (nM)

[1] CAHFRWCAHFRW (modifications not checked) [Chem. 111]
[2] CAHFRWCRFFNA (modifications not checked) [Chem. 12]
[3] CAHFRWCKKKR (modifications not checked) [Chem. 101]
Rank descending by MC4R cAMP EC50. Put the labels in the requested order and list them out. 2, 3, 1
